# target: purified MKK4 protein (Homo sapiens)
# Construct: made in house
# Sequence (P45985 1-399): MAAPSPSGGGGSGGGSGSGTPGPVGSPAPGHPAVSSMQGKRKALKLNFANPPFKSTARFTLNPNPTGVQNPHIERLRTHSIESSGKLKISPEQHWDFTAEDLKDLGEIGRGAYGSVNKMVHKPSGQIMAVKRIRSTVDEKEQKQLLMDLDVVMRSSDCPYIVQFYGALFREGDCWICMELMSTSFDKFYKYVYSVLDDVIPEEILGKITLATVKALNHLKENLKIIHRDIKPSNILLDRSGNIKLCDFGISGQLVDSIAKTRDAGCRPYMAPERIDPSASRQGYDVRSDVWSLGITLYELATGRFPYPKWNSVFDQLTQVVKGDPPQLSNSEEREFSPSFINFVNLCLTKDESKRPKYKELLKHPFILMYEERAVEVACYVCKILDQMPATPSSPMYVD
# method: in vitro MKK4 kinase assay, phosphorylation of substrate JNK1a1 with 32P-ATP
# Format: biochemical
# test-context: small inhibitory compound final concentration 50 μM, 32P-gATP approx. 10 μM, value is remaining activity, read-out: Inhibition, relative activity of MKK4 compared to control (without additional compound) (%)
Label key: 1 means remaining activity at 50 µM under 50%; -1 means remaining activity at 50 µM of 50% or more.

Here's what some known entries look like.
molecule	target	classification
Cc1ccc(NC(=O)c2cccc(N(C)C)c2)cc1NC(=O)c1ccc(O)cc1 [ZM 336372, reference compound]	purified MKK4 protein (Homo sapiens)	-1
O=[N+]([O-])c1cccc(/C=N/c2ccc3[nH]ncc3c2)c1O [BAS00697444]	purified MKK4 protein (Homo sapiens)	-1
Cc1n[nH]c(C)c1CCc1cc(=O)n2ncc(-c3ccc(F)cc3)c2[nH]1 [SYN22174787]	purified MKK4 protein (Homo sapiens)	1

Please look at the following molecule next.
### Prompt Problem: For the molecule COCc1nn2c(=O)cc(CCc3c(C)n[nH]c3C)[nH]c2c1-c1ccc(Cl)cc1 [SYN22176267] , is remaining activity at 50 µM under 50%?
### Response -1
